Target: CA-IX-His-ECD (his-V5 tagged version of the CA IX protein, extracellular domain) (human, UniProt Q16790 38-414)
Assay: ELISA on CA-IX-His-ECD
OD values, listed per item
Respond numerically; units are OD and should not be typed.

[
  {
    "BINDER": "AB-MN-22.28.1 (antibody, human IgG2, V domains shown, the numbering there is inconsistent; also called AX014H22-28-1) VH: QVQLEQSGGGLVQPGGSLRLSCAASGFTFSSYAMSWVRQAPGKGLEWVSAISGSGGGTYYADSVKGRFTISRDNSKNTLYLQMNSLRAEDTAVYYCASGRYYYYYDMDVWGQGTTVTVSS VL: DIRLTQSPSSLSASVGDRVTITCRASQGIRNDLGWYQQKPGKAPKRLIYAASSLQSGVPSRFSGSGSGTEFTLTISSLQPEDFATYYCLQHNSYPLTFGGGTKVEIK",
    "OD (OD)": 0.404
  }
]

Form field: reported OD of AB-MN-22.20 (antibody, human IgG2, V domains shown, also called AX014H22-20) VH: QVQLQESGPGLVKPSQTLSLTCTVSGGSISSGGSYWTWIRQHPGKGLEWIGYIYYSGNTYYNPSLKSRVTISVDTSKNQFSLKLSSVTAADTAVYYCARTYYDILTGYPDAFDIWGQGTMVTVSS VL: DIQMTQSPSSLSASVGDRVTITCRASQGIRNDLGWYQQKPGKAPKRLIYAASSLQSGVPSRFSGSGSGTEFTLTISSLQPEDFTTYYCLQYKSYPWTFGQGTKVEIK
1.72

Form field: reported OD of AB-MN-21.1.1 (antibody, human IgG1, V domains shown, also called 21.1.1 a; AX014H21-1-1) VH: QVQLQESGPGLVKPSETLSLTCTVSGGSISSYYWSWIRQPPGKGLEWIGYIYYSGSTNYNPSLKSRVTISVDTSKNQFSLKLSSVTAADTAVYYCARRGYDILTGYDYFDYWGQGTLVTVSS VL: DIQMTQSPSSVSASVGDRVTITCRASQGISIWLTWYQQKPGKAPKLLIYAASSLQSGVPSRFSGSGSGTDFTLTISSLQPEDFATYYCQQANSFPITFGQGTRLEIK
1.64

Form field: reported OD of AB-MN-21.2.1 (antibody, human IgG1, V domains shown, also called AX014H21-2-1) VH: QVQLQESGPGLVKPSQTLSLTCTVSGGSISSGGYYWNWIRQHPGKGLEWIGYIYYSGSTYYNPSLKSRVTISVDTSKNQFSLKLSSVTAADTAVYYCARTYYDILTGYPDAFDIWGQGTMVTVSS VL: DIQMTQSPSSLSASVGDRVTITCRASQDIRNDLGWYQQKPGKAPKRLICAASSLQSGVPSSFSGSGSGTEFTLTISSLQPEDFATYYCLQHNSYPWTFGQGTKVEIK
1.21

Form field: reported OD of AB-MN-22.8.1 (antibody, human IgG2, V domains shown, also called AX014H22-8-1) VH: SGPGLVKPSETLSLTCTVSGGSISSYYWSWIRQPPGKGLEWIGYIYYSGSTNYNPSLKSRVTISVDTSKNQFSLKLTSVTAADTAVYYCARDQHSSSVYYYYYGMDVWGQGTTVTVSS VL: ETQLTQSPGTLSLSPGERATLSCRASQSIYINYLAWYQQKPGQAPRLLISGASSRATGIPDRFSGSGSGTDFTLTISRLEPEDFAVYYCQQYGRSLTFGGGTEVEIKR
2.41

Reference source for all entries: patent US20040018198A1
